Target: truncated PI3Kα (p110α/iSH2 p85α) (Homo sapiens (Human))
Sequence (P42336 whole entry, the tested form may be a part): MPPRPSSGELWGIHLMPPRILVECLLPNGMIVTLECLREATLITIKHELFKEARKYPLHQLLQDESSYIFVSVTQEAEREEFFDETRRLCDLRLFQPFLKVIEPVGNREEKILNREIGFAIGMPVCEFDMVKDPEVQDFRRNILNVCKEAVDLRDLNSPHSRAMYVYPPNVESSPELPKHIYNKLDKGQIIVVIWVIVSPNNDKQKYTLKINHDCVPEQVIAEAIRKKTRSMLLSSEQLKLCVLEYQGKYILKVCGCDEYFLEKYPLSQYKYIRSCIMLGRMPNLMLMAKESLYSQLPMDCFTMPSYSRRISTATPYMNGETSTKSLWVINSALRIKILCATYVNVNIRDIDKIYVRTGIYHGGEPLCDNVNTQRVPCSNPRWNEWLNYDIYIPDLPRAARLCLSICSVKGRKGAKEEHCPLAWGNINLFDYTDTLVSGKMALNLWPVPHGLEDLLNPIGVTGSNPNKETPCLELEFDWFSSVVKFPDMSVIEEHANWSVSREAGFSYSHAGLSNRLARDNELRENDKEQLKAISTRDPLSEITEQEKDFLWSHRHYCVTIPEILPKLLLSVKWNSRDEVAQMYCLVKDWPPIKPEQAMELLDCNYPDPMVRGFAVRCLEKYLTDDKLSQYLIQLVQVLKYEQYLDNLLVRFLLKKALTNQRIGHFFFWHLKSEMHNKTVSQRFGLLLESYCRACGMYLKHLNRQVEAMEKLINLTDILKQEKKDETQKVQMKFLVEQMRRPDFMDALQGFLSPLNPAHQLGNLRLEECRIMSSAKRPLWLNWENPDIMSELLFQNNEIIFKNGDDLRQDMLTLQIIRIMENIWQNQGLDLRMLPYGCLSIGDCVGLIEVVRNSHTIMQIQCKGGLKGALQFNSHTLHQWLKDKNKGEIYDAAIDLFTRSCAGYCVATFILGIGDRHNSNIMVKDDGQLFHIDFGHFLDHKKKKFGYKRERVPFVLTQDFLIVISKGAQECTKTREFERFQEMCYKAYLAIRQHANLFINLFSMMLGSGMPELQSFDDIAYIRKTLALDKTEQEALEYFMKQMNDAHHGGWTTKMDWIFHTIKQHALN
Test: PI3KA_Act fluorescence polarization kinase assay (Ki)
Format: biochemical
Details: 1 mM ATP
Experimental: 2) p110α-iSH2 p85α Complex (Full Length p110α and p85α iSH2)(“PI3KA_Act”) […] The biochemical assays of kinase activity of full-length PI3Kα (full-length p110α/p85a) or truncated PI3Kα (p110α/iSH2 p85a) were conducted using a fluorescence polarization format similar to the procedure of Yuan J., et al., (2011) “PF-04691502, a Potent and Selective Oral Inhibitor of PI3K and mTOR Kinases with Antitumor Activity”, Mol Cancer Ther. 10, 2189-2199. […]
assay_metric: PI3KA_Act Ki

{"cpd_smiles": "Cc1n[nH]cc1C(=O)N1CC[C@](C)(N2CCc3c(-c4cnc(N)nc4)nc(N4CCOCC4)nc32)C1", "meas_value": "<18 pM"}
{"cpd_smiles": "C[C@H]1COCCN1c1nc(-c2cnc(N)nc2)c2c(n1)N([C@@]1(C)CCN(C(=O)[C@@](C)(N)CO)C1)CC2.Cl", "meas_value": "<18 pM"}
{"cpd_smiles": "CC(C)(C)OC(=O)N1CC[C@](C)(N2CCc3c(-c4cnc(N)nc4)nc(N4CCOCC4)nc32)C1", "meas_value": "<18 pM"}

* * *

Target: truncated PI3Kα (p110α/iSH2 p85α) (Homo sapiens (Human))
Assay: PI3KA_Act fluorescence polarization kinase assay (Ki)
Type: biochemical
Conditions: 1 mM ATP

{"compound": "C[C@@]1(N2CCc3c(-c4cnc(N)nc4)nc(N4CCOCC4)nc32)CCN(C(=O)C2(O)CCC2)C1", "readout_qualifier": "=", "PI3KA_Act Ki / nM": 0.098}
{"compound": "CN[C@H]1C[C@@H](N2CCc3c(-c4cnc(N)nc4)nc(N4CCOC[C@@H]4C)nc32)C1.Cl", "readout_qualifier": "=", "PI3KA_Act Ki / nM": 2.125}
{"compound": "CC(C)[C@H](O)C(=O)N1CC[C@](C)(N2CCc3c(-c4cnc(N)nc4)nc(N4CCOCC4)nc32)C1", "readout_qualifier": "=", "PI3KA_Act Ki / nM": 0.022}
{"compound": "C[C@H]1COCCN1c1nc(-c2cnc(N)nc2)c2c(n1)N([C@@H]1CCN(P(C)(C)=O)C1)CC2", "readout_qualifier": "=", "PI3KA_Act Ki / nM": 0.615}
{"compound": "C[C@H]1COCCN1c1nc(-c2cnc(N)nc2)c2c(n1)N([C@@]1(C)CCN(C(=O)[C@H](N)CF)C1)CC2.Cl", "readout_qualifier": "<", "PI3KA_Act Ki / nM": 0.018}
{"compound": "C[C@H]1COCCN1c1nc(-c2cnc(N)nc2)c2c(n1)N([C@H]1C[C@@H](NC(=O)OC(C)(C)C)C1)CC2", "readout_qualifier": "=", "PI3KA_Act Ki / nM": 0.644}
{"compound": "CC1(N2CCc3c(-c4cnc(N)nc4)nc(N4CCOCC4)nc32)CN(S(N)(=O)=O)C1", "readout_qualifier": "=", "PI3KA_Act Ki / nM": 0.062}
{"compound": "CC(C)[C@@H](N)C(=O)N1CC[C@H](N2CCc3c(-c4cnc(N)nc4)nc(N4CCOCC4)nc32)C1.Cl", "readout_qualifier": "=", "PI3KA_Act Ki / nM": 0.462}
{"compound": "CC(C)NC(=O)N1CC[C@@](C)(N2CCc3c(-c4cnc(N)nc4)nc(N4CCOCC4)nc32)C1", "readout_qualifier": "=", "PI3KA_Act Ki / nM": 0.112}
{"compound": "CCC(C)(O)C(=O)N1CC[C@](C)(N2CCc3c(-c4cnc(N)nc4)nc(N4CCOCC4)nc32)C1 (single isomer, unassigned) [Example 273]", "readout_qualifier": "=", "PI3KA_Act Ki / nM": 0.087}
{"compound": "C[C@]1(N2CCc3c(-c4cnc(N)nc4)nc(N4CCOCC4)nc32)CCN(C(=O)C2CC2)C1", "readout_qualifier": "=", "PI3KA_Act Ki / nM": 0.024}
{"compound": "C[C@H]1COCCN1c1nc(-c2cnc(N)nc2)c2c(n1)N([C@@]1(C)CCNC1)CC2.Cl", "readout_qualifier": "=", "PI3KA_Act Ki / nM": 0.160}
{"compound": "C[C@H]1COCCN1c1nc(-c2cnc(N)nc2)c2c(n1)N(C1(C)CN(S(=O)(=O)C3CC3)C1)CC2", "readout_qualifier": "=", "PI3KA_Act Ki / nM": 0.021}
{"compound": "C[C@H]1COCCN1c1nc(-c2cnc(N)nc2)c2c(n1)N(C1(C)CN(S(C)(=O)=O)C1)CC2", "readout_qualifier": "=", "PI3KA_Act Ki / nM": 0.031}
{"compound": "CN(C)S(=O)(=O)N1CC[C@H](N2CCc3c(-c4cnc(N)nc4)nc(N4CCOCC4)nc32)C1", "readout_qualifier": "=", "PI3KA_Act Ki / nM": 0.100}
{"compound": "COC1CN(C(=O)N2CC[C@](C)(N3CCc4c(-c5cnc(N)nc5)nc(N5CCOC[C@@H]5C)nc43)C2)C1", "readout_qualifier": "=", "PI3KA_Act Ki / nM": 0.048}
{"compound": "C[C@@H]1CN(C(=O)OC(C)(C)C)C[C@@]1(C)N1CCc2c(-c3cnc(N)nc3)nc(N3CCOC[C@@H]3C)nc21", "readout_qualifier": "<", "PI3KA_Act Ki / nM": 0.018}
{"compound": "C[C@H](O)C(=O)N1CC[C@@](C)(N2CCc3c(-c4cnc(N)nc4)nc(N4CCOCC4)nc32)C1", "readout_qualifier": "=", "PI3KA_Act Ki / nM": 0.074}
{"compound": "COC(=O)C(C)(C)N1CCc2c(-c3cnc(N)nc3)nc(N3CCOCC3)nc21", "readout_qualifier": "=", "PI3KA_Act Ki / nM": 0.449}

Every entry's value here was drawn from patent US9260439B2.
